Assay system: KRAS Q61H (Homo sapiens (Human), UniProt P01116+P62937, Q61H)
Sequence (P01116-2 other isoform, or with tags, fused parts or gaps Q61H): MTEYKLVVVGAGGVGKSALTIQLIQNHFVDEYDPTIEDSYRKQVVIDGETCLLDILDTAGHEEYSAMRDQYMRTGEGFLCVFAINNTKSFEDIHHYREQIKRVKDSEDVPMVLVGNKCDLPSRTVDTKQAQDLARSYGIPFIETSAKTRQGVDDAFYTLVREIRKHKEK
Sequence (P62937 whole entry): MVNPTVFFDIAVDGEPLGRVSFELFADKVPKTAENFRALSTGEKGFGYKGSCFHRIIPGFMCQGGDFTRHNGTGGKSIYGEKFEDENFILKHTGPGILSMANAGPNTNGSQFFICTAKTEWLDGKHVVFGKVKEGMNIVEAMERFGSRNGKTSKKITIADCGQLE
Experimental details: Ras-Raf (BRAF RBD) disruption / FRET / MOA assay, KRAS Q61H
Assay type: biochemical
Measurement context: Ras-Raf disruption/FRET/MOA assay; class symbols; read-out: KRAS Q61H FRET data IC50
Measurement name: IC50

# input compound: C=CC(=O)N1CCC12CN(C(=O)N(C)[C@H](C(=O)N[C@H]1Cc3nc(cs3)-c3ccc4c(c3)c(c(-c3cccnc3[C@H](C)OC)n4CC)CC(C)(C)COC(=O)[C@@H]3CCCN(N3)C1=O)C(C)C)C2 (atropisomer, axis not shown) ; wanted: its IC50
100 to 1000 nM

Please give the measured IC50 for this compound: C=CC(=O)N1CC[C@H](C(=O)N(C)[C@H](C(=O)N[C@H]2Cc3cc(O)cc(c3)-c3ccc4c(c3)c(c(-c3cc(C#N)cnc3COC)n4CC)CC(C)(C)COC(=O)[C@@H]3CCCN(N3)C2=O)C(C)C)C1
10 to 100 nM

Return reported IC50; argument: C=CC(=O)N1CCO[C@H]2CN(C(=O)N(C)[C@H](C(=O)N[C@H]3Cc4coc(n4)-c4ccc5c(c4)c(c(-c4cccnc4[C@H](C)OC)n5CC(F)(F)F)CC(C)(C)COC(=O)[C@@H]4CCCN(N4)C3=O)C(C)C)C[C@H]21 (atropisomer, axis not shown)
100 to 1000 nM

Given the entry C=CC(=O)N1CC[C@H](C(=O)N(C)[C@H](C(=O)N[C@H]2C[C@H]3CN(CCO3)c3ccc4c(c3)c(c(-c3cccnc3COC)n4CC)CC(C)(C)COC(=O)[C@@H]3CCCN(N3)C2=O)C(C)C)C1 , report its measured IC50.
> 10000 nM

For the compound CCn1c(-c2cccnc2[C@H](C)OC)c2c3cc(ccc31)-c1cccc(c1)C[C@H](NC(=O)[C@@H](COC1CN(C(=O)C#CC(C)(C)N3CCC3)C1)C(C)C)C(=O)N1CCC[C@H](N1)C(=O)OCC(C)(C)C2 (atropisomer, axis not shown) , what IC50 is on record?
1000 to 10000 nM

Fill blank: measured IC50 of the compound CO[C@@H](C)c1ncccc1-c1c2c3cc(ccc3n1CC(F)(F)F)-c1cc(cc(C(F)F)c1)C[C@H](NC(=O)[C@@H](COC1CN(C(=O)C#CC(C)(C)N(C)C)C1)C(C)C)C(=O)N1CCC[C@H](N1)C(=O)OCC(C)(C)C2 (atropisomer, axis not shown) is ____.
> 10000 nM

Tell me the measured IC50 of C=CC(=O)N1CC[C@H](C(=O)N(C)[C@H](C(=O)N[C@H]2Cc3cc(O)cc(c3)-c3ccc4c(c3)c(c(-c3cccnc3[C@@H]3CCCO3)n4CC)CC(C)(C)COC(=O)[C@@H]3CCCN(N3)C2=O)C(C)C)C1 (atropisomer, axis not shown) , please.
10 to 100 nM

Recorded IC50 for CCn1c(-c2cccnc2[C@H](C)OC)c2c3cc(ccc31)-c1csc(n1)C[C@H](NC(=O)[C@@H](COC1CN(C(=O)C#CC(C)(C)N(C)C)C1)C(C)C)C(=O)N1CCC[C@H](N1)C(=O)OCC(C)(C)C2 (atropisomer, axis not shown) , please?
1000 to 10000 nM

From: patent US11566007B2
